Data credit: patent US20260232763A1

Assay: Example 3 Part 2 (Regimen B) dabigatran etexilate + belumosudil plasma PK
Type: in vivo, human
Details: male, human, plasma, oral, 75 mg, Regimen B, dabigatran etexilate 75 mg single dose alone (Day 1); read-out: AUC(0-inf), adj geo mean
Property: AUC(0-inf) (ng·h/mL)
A number alone suffices; assume ng·h/mL.

In: Quick one: AUC(0-inf) for [H]/N=C(/N)c1ccc(NCc2nc3cc(C(=O)N(CCC(=O)O)c4ccccn4)ccc3n2C)cc1 [unconjugated dabigatran, dabigatran, reference compound] ?
Out: 398

---

Experiment: Example 3 Part 2 (Regimen B) dabigatran etexilate + belumosudil plasma PK
Type: in vivo, human
Settings: male, human, plasma, oral; Regimen B, dabigatran etexilate 75 mg single dose alone (Day 1); read-out: AUC(0-last), adj geo mean
Property: AUC(0-t)

In: Need AUC(0-t) of [H]/N=C(/N)c1ccc(NCc2nc3cc(C(=O)N(CCC(=O)O)c4ccccn4)ccc3n2C)cc1 [unconjugated dabigatran, dabigatran, reference compound] , thanks.
Out: 0.317 µg·h/mL

---

Assay: Example 3 Part 2 (Regimen B) dabigatran etexilate + belumosudil plasma PK
Format: in vivo, human
Conditions: male, human, plasma, oral, 75 mg, Dabigatran etexilate alone (Day 1), 75 mg single dose; read-out: AUC(0-inf), geometric mean
Property: AUC(0-inf) (ng·h/mL)
Numeric answer only, unit ng·h/mL assumed.

In: Please give the measured AUC(0-inf) for this compound: [H]/N=C(/N)c1ccc(NCc2nc3cc(C(=O)N(CCC(=O)O)c4ccccn4)ccc3n2C)cc1 [unconjugated dabigatran, dabigatran, reference compound]
Out: 371

---

Test: clinical
Details: male, human, in vivo
Property: Tmax

In: Query (compound): CC(C)NC(=O)COc1cccc(-c2nc(Nc3ccc4[nH]ncc4c3)c3ccccc3n2)c1 ; field requested: Tmax
Out: 1.5 to 3 h

---

Assay: clinical
Details: male, human, in vivo, 400 mg, AUC(0-last), geometric mean
Property: AUC(0-t)

In: Fill blank: measured AUC(0-t) of the compound Cc1nnc(C(=O)NC(C)(C)c2nc(C(=O)NCc3ccc(F)cc3)c(O)c(=O)n2C)o1 [raltegravir, reference compound] is ____.
Out: 1640 ng·h/mL

---

Test: clinical
Conditions: male, human, in vivo, 400 mg
Property: AUC(0-inf) (ng·h/mL)
Answer with a number only, understood to be in ng·h/mL.

In: For Cc1nnc(C(=O)NC(C)(C)c2nc(C(=O)NCc3ccc(F)cc3)c(O)c(=O)n2C)o1 [raltegravir, reference compound] , what is its reported AUC(0-inf)?
Out: 1510

---

Assay: clinical
Conditions: male, human, in vivo, 400 mg, AUC(0-24), geometric mean
Property: AUC(0-t) (ng·h/mL)
Expressed in ng·h/mL, but write only the number.

In: State the recorded AUC(0-t) for this entry: Cc1nnc(C(=O)NC(C)(C)c2nc(C(=O)NCc3ccc(F)cc3)c(O)c(=O)n2C)o1 [raltegravir, reference compound]
Out: 1970

---

Test: clinical
Details: male, human, in vivo
Property: Tmax

In: Reported Tmax, molecule CC(C)NC(=O)COc1cccc(-c2nc(Nc3ccc4[nH]ncc4c3)c3ccccc3n2)c1 : ____
Out: 1.5 to 2 h

---

Test: Example 3 Part 2 (Regimen B) dabigatran etexilate + belumosudil plasma PK
Type: in vivo, human
Details: male, human, plasma, oral, 200 mg, Part 2, Dabigatran etexilate + belumosudil (Day 12), 200 mg QD; read-out: T1/2, geometric mean (converted)
Property: half-life

In: What value of half-life has been recorded for this entry: CC(C)NC(=O)COc1cccc(-c2nc(Nc3ccc4[nH]ncc4c3)c3ccccc3n2)c1
Out: ~10 h
